We begin with a simple list: items and their reported Bond results.
Target: Class I HLA molecule A*0301 in recombinant form (UniProt P04439 25-302)
Measurement Notes: iTopia ELISA-like peptide-HLA binding

{"columns": ["Binder", "Bond results (%)"],
 "data": [
  ["FTLTISRLE [VK3-20 peptide No 72 FTLTISRLE]", 2],
  ["VSSSYLAWY [VK3-20 peptide No 29 VSSSYLAWY]", 2],
  ["VLTQSPGTL [VK3-20 peptide No 3 VLTQSPGTL]", 2],
  ["RLEPEDFAV [VK3-20 peptide No 78 RLEPEDFAV]", 2],
  ["ASQIVSSSY [VK3-20 peptide No 25 ASQIVSSSY]", 2],
  ["SQIVSSSYL [VK3-20 peptide No 26 SQIVSSSYL]", 4],
  ["RTFGQGTKV [VK3-20 peptide No 97 RTFGQGTKV]", 37],
  ["SPRTFGQGT [VK3-20 peptide No 95 SPRTFGQGT]", 2],
  ["KPGQAPRLL [VK3-20 peptide No 40 KPGQAPRLL]", 2],
  ["TLSCRASQI (also called P20) [VK3-20 peptide No 20 TLSCRASQI]", 2],
  ["VYYCQQYGS [VK3-20 peptide No 86 VYYCQQYGS]", 0],
  ["IVSSSYLAW [VK3-20 peptide No 28 IVSSSYLAW]", 4],
  ["LLIYGASSR [VK3-20 peptide No 47 LLIYGASSR]", 4]
]}

The reported measurements were obtained from patent US8512703B2.
